- target-or-test-system: KDR-Kinase (VEGFR-2) (Homo sapiens, UniProt P35968)
- Construct: GST-kinase domain fusion construct of the KDR kinase; GST
- Sequence (P35968 834-1162 limits assumed, species assumed): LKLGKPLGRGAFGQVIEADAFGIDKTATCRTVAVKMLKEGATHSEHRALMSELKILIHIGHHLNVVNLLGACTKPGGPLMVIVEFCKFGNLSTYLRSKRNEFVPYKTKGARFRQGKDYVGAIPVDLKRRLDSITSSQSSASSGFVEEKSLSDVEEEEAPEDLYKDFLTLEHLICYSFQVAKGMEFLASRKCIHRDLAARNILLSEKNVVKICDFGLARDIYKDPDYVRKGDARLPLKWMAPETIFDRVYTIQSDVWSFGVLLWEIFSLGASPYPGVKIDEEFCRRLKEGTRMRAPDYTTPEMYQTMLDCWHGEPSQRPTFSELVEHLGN
- measurement-notes: KDR Kinase Inhibition
- conditions: GST-kinase domain fusion construct of the KDR kinase; poly(Glu4Tyr) substrate, 32P-ATP, 10 min

- smiles: "CN(C)C(=O)Nc1cc(CNc2ccccc2C(=O)Nc2ccc3cn(C)nc3c2)ccn1"
  IC50 / nM: 25
- smiles: "CCN(CC)C(=O)Nc1cc(CNc2ccccc2C(=O)Nc2ccc3cn(C)nc3c2)ccn1"
  IC50 / nM: 35
- smiles: "CN(C)C(=O)Nc1cc(CNc2ccccc2C(=O)Nc2ccc3c(ccc(=O)n3C)c2)ccn1"
  IC50 / nM: 36
- smiles: "CCN(C)C(=O)Nc1cc(CNc2ccccc2C(=O)Nc2ccc3cn(C)nc3c2)ccn1"
  IC50 / nM: 24

---

UniProt P11712 measurements of pIC50, listed per entry.
Sequence (P11712 whole entry): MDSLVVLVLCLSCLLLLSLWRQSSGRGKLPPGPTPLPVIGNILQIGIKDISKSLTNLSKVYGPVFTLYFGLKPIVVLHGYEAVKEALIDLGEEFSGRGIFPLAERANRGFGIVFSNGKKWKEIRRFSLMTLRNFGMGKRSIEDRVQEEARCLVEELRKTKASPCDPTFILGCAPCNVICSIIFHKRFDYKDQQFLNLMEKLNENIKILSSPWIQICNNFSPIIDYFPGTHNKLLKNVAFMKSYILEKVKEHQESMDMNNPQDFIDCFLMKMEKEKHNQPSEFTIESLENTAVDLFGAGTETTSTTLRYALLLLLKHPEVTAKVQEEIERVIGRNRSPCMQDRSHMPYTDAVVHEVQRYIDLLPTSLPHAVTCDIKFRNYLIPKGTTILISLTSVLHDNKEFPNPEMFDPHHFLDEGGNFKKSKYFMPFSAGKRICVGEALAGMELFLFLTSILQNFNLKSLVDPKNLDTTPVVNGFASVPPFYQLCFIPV
pIC50: −log10 of the molar value.

- compound: "CN(C)C(=O)Nc1cc(CNc2ccccc2C(=O)Nc2ccc3cn(C)nc3c2)ccn1 [Example 1.0]"
  pIC50: 5.17
- compound: "CCN(C)C(=O)Nc1cc(CNc2ccccc2C(=O)Nc2ccc3cn(C)nc3c2)ccn1 [Example 1.4]"
  pIC50: 5.18
- compound: "CN(C)C(=O)Nc1cc(CNc2ccccc2C(=O)Nc2ccc3c(ccc(=O)n3C)c2)ccn1 [Example 2.2]"
  pIC50: 5.00
